Measured Target: ATP-binding cassette transporter A1 (ABCA1) (UniProt P41233 1-2261, limits assumed)
Sequence (P41233 whole entry): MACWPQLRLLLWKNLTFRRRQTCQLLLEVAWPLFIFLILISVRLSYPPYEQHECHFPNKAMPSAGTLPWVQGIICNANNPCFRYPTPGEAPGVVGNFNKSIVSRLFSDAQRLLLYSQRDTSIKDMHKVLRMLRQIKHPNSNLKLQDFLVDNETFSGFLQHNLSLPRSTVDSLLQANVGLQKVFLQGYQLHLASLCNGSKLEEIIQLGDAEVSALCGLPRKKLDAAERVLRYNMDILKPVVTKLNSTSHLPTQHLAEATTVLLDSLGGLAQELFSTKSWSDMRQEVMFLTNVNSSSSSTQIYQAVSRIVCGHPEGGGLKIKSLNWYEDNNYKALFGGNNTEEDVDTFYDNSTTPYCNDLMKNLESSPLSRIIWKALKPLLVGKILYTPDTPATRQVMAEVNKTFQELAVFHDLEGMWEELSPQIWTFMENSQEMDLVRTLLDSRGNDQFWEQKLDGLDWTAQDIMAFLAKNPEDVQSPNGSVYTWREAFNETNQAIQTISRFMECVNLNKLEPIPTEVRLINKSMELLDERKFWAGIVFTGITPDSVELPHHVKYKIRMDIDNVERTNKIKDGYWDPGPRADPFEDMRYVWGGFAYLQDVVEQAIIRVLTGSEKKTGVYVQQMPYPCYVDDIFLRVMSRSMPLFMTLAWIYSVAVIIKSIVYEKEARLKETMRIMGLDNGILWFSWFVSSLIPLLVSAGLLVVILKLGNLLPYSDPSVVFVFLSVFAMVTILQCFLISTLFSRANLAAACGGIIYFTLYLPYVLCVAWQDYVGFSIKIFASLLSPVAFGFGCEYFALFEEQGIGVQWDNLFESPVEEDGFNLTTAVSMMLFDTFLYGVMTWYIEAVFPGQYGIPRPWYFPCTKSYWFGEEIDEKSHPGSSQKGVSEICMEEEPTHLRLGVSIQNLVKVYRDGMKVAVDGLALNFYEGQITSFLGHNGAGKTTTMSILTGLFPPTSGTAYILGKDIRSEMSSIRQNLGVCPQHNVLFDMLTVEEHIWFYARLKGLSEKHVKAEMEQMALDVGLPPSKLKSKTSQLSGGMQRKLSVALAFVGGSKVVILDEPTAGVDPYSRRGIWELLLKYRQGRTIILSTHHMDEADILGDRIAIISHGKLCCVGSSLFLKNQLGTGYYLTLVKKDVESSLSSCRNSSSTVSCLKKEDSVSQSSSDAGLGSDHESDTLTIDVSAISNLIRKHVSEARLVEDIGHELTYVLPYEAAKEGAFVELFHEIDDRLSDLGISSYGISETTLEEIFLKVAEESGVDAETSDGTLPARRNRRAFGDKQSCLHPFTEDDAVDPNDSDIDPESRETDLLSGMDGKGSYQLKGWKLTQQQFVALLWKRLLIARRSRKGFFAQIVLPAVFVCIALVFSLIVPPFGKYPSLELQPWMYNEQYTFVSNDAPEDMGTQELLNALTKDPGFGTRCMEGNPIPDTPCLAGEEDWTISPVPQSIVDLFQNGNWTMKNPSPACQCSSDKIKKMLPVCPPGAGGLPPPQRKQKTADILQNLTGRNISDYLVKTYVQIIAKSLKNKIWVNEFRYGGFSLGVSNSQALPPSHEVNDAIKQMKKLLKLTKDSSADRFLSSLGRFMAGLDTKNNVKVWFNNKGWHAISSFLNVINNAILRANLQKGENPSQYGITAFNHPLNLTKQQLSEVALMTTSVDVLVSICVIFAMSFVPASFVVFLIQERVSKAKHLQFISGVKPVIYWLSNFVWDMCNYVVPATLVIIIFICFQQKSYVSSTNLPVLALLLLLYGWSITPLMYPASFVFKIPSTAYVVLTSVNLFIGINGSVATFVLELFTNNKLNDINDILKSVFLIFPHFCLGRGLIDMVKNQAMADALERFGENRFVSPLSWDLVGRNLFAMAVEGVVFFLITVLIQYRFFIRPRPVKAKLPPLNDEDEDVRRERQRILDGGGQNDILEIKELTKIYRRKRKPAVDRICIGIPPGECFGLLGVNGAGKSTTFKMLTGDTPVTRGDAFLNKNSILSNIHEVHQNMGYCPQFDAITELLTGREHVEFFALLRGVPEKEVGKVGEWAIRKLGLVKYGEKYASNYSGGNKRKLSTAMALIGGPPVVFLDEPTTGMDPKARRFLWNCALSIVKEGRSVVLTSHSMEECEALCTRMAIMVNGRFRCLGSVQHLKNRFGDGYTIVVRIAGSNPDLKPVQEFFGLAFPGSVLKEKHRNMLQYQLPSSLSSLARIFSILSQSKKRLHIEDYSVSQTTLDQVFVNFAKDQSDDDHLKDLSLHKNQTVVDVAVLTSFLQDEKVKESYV
Experiment Summary: cell-based or functional assay
Reported Endpoint: % cholesterol efflux/4 hours at 1.0 µg/ml

* ELREKLEAWFELFEEFFARFKS [N356-3] | 1.2%
* ELREKLEAWFELFAEFFARF [N356-6] | 0.67%
* ELREKLEAWFELFAEFFARFK [N356-5] | 1.59%
